# System: Mus musculus
# EXPERIMENT DESCRIPTION: Neurotoxicity in albino Carworth Farms No.1 mouse at 100 mg/kg, ip after 0.5 hrs by rotarod test
# Assay type: toxicity, organism-based
# PARTICULARS: in vivo

COMPOUND | EXPERIMENTAL TARGET | Activity
CC(=O)OCC(C)NC(=O)/C=C/c1ccccc1 (racemic) | Mus musculus | Non-toxic
CC(=O)OC(C)CNC(=O)/C=C/c1ccccc1 (racemic) | Mus musculus | Non-toxic
CCC(O)CNC(=O)/C=C/c1ccccc1 (racemic) | Mus musculus | Non-toxic

---

# EXPERIMENT DESCRIPTION: Lipophilicity of the compound using 65% methanol in water at 1 mg/ml by RT-TLC analysis
# Type: physicochemical
# PARTICULARS: buffer

COMPOUND | Rm
O=C(/C=C/c1ccccc1)N1CCC(O)CC1 | 0.18
CCC(COC(C)=O)NC(=O)/C=C/c1ccccc1 (stereo not given) | 0.29
O=C(/C=C/c1ccccc1)NCCCCCO | 0.19
O=C(/C=C/c1ccccc1)N[C@H]1CCCC[C@@H]1O (racemic) | 0.33
CC(NC(=O)/C=C/c1ccccc1)C(=O)NCN1CCCCC1 (racemic) | 0.5
CC(C)(CO)NC(=O)/C=C/c1ccccc1 | 0.29
COC(=O)C(NC(=O)/C=C/c1ccccc1)C(C)C (racemic) | 0.58
CCC(CO)NC(=O)/C=C/c1ccccc1 (racemic) | 0.25
CC(=O)OCC(C)NC(=O)/C=C/c1ccccc1 (racemic) | 0.19
CC(O)CNC(=O)/C=C/c1ccccc1 (racemic) | 0.02
CC(C)C(CO)NC(=O)/C=C/c1ccccc1 (racemic) | 0.31
CCC(O)CNC(=O)/C=C/c1ccccc1 (racemic) | 0.19
CC(CO)NC(=O)/C=C/c1ccccc1 (racemic) | -0.03
CC(=O)CNC(=O)/C=C/c1ccccc1 | 0.05
CC(=O)OC(C)CNC(=O)/C=C/c1ccccc1 (racemic) | 0.25

These measurements were taken from ChEMBL document CHEMBL3739352.
